biological target: T1, anti-CD28 scFv (VH - linker 1 - VL) (biotinylated (site not given)); experiment: phage ELISA as above; wells pre-incubated with soluble CD28 as competitor;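 also: crude clonal phage supernatants tested, with bound phage detected by HRP-conjugated anti-M13 antibody, and reference wells given blocking buffer without CD28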
T1 construct: Biotinylated scFv captured on neutravidin coated plates in the panning ELISA
T1 sequence (scFv, as listed by the source): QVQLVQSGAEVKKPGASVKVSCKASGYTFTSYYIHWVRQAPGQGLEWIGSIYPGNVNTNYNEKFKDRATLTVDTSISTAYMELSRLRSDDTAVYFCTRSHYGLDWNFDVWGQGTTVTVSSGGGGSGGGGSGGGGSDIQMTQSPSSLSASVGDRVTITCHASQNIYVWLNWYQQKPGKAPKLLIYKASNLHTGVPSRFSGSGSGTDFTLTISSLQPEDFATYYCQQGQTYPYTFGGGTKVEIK
Where no end group is shown, it is not given here.
measurement_name: CD28 scFv signal in presence of CD28
One number for each entry.

Take a look at these entries with their results.
# binder, CD28 scFv signal in presence of CD28
rows = [
    ("MDWCPRDLWHECFN [Phage-103]", 0.218),
    ("MHWCPRALWDVCYN (cysteine pairing not given here; also: phage-displayed pIII fusion, pIII and linker not given here) [Phage-112]", 0.24),
    ("MDWCPRYLWAECFY [Phage-102]", 0.354),
    ("MDWCPRDLWSLCFY (cysteine pairing not given here; also: displayed on phage as fusion to pIII, linker not given here) [Phage-94]", 0.246),
]

// for each binder in input: emit CD28 scFv signal in presence of CD28
1. MDWCPRYLWFECFA (cysteine pairing not given here; also: phage-displayed pIII fusion, pIII and linker not given here) [Phage-114]
2. MDWCPRDLWAECFN [Phage-107]
3. MDWCPRYLWHECFN (cysteine pairing not given here; also: phage-displayed pIII fusion, pIII and linker not given here) [Phage-115]
4. MDWCPRTLWAYCFN (cysteine pairing not given here; also: displayed on phage as fusion to pIII, linker not given here) [Phage-96]
5. MDWCPRYLWNVCFN [Phage-105]
6. MDWCPKNLWHVCFN (cysteine pairing not given here; also: phage-displayed pIII fusion, pIII and linker not given here) [Phage-109]

[out]
0.21
0.207
0.421
0.584
0.57
0.248
